Assay: Maximal absorbance wavelength and extinction coefficient (spectrophotometer scan)
Assay type: physicochemical
Conditions: 100 μM in 50:50 de-ionized water and ethanol
I'd appreciate it if you could supply maximal absorbance wavelength values for the items below.
Answers are plain numbers, in nm.

Illustrative cases are given below, each with its answer.
                                   compound  numeric_result
0  C[C@@H](COc1cccc(C(C)(C)O)c1)[C@H]1CC[C@H]2/C(=C/C=C3C[C@@H](O)C4(CC4)[C@H](O)C3)CCC[C@]12C [Vida-57]             253
1  C=C1[C@H](O)CC(=C/C=C2\CCCC3(C)C2CCC3[C@@H](C)CSc2cccc(C(C)(C)O)c2)C[C@H]1O (some centres unmarked) [Vida-43]             254
2  C[C@@H](OCCC(C)(C)O)C1CCC2/C(=C/C=C3C[C@@H](O)C4(CC4)[C@H](O)C3)CCCC21C (some centres unmarked) [Vida-1]             253
3  C=C1[C@H](O)CC(=C/C=C2\CCCC3(C)C2CCC3[C@@H](C)OCCC(O)(CC)CC)C[C@H]1O (some centres unmarked) [Vida-11]             254

Q) Complete the entry with maximal absorbance wavelength for C[C@@H](OC[C@H](C)C(C)(C)O)C1CCC2/C(=C/C=C3C[C@@H](O)C4(CC4)[C@H](O)C3)CCCC21C (some centres unmarked) [Vida-4]
A) 253

Numbers sourced from patent US20180327354A1.
